- target_or_test_system: SARS-CoV-2 NSP3 macrodomain (Mac1) (Severe acute respiratory syndrome coronavirus 2)
- test_summary: biochemical
- Type: binding
- settings: dose-response fit
Recorded SARS CoV-2 macrodomain HTRF assay: Hillslope for the following compounds
Lab note: write the figure by itself, no unit.

// worked examples, SARS CoV-2 macrodomain HTRF assay: Hillslope included
Exercise: Requested read-out SARS CoV-2 macrodomain HTRF assay: Hillslope, target or system SARS-CoV-2 NSP3 macrodomain (Mac1) (Severe acute respiratory syndrome coronavirus 2), entry O=C(O)C(F)(F)F.OC1([C@H]2CCCN2c2ncnc3[nH]ccc23)Cc2ccccc2C1
Solution: 1.1

Exercise: API: value(readout=SARS CoV-2 macrodomain HTRF assay: Hillslope, system=SARS-CoV-2 NSP3 macrodomain (Mac1) (Severe acute respiratory syndrome coronavirus 2)) for record CC1(C)C[C@@H](CO)N(c2ncnc3[nH]ccc23)C1.O=C(O)C(F)(F)F
Solution: 1.1

Exercise: Request - read-out SARS CoV-2 macrodomain HTRF assay: Hillslope | tested on SARS-CoV-2 NSP3 macrodomain (Mac1) (Severe acute respiratory syndrome coronavirus 2) | compound CCC(O)[C@H]1CCCN1c1ncnc2[nH]ccc12 (stereo partly drawn)
Solution: 1.3

Exercise: Lookup: SARS CoV-2 macrodomain HTRF assay: Hillslope / SARS-CoV-2 NSP3 macrodomain (Mac1) (Severe acute respiratory syndrome coronavirus 2) / OCC1CC=CCN1c1ncnc2[nH]ccc12 (stereo not drawn)
Solution: 1.3

Exercise: Request body: readout SARS CoV-2 macrodomain HTRF assay: Hillslope, system SARS-CoV-2 NSP3 macrodomain (Mac1) (Severe acute respiratory syndrome coronavirus 2), query CN(CC1(O)CCOCC1)c1ncnc2[nH]ccc12 . Return the value.
Solution: 1.2

Exercise: Checklist item: SARS CoV-2 macrodomain HTRF assay: Hillslope tested on SARS-CoV-2 NSP3 macrodomain (Mac1) (Severe acute respiratory syndrome coronavirus 2), entry CC(C)(O)C1N(c2ncnc3[nH]ccc23)CCC1(C)C (stereo not drawn) , value?
Solution: 1.3

API: the following record is the query input.
Exercise: Item: C[C@@H]1CCN(c2ncnc3[nH]ccc23)[C@H](CO)C1 (racemic) Test system: SARS-CoV-2 NSP3 macrodomain (Mac1) (Severe acute respiratory syndrome coronavirus 2) Read-out: SARS CoV-2 macrodomain HTRF assay: Hillslope Value: ?
Solution: 1.2

====

- target_or_test_system: SARS-CoV-2 NSP3 macrodomain (Mac1) (Severe acute respiratory syndrome coronavirus 2)
- test_summary: biochemical
- Assay type: binding
- settings: dose-response; read-out: SARS CoV-2 macrodomain HTRF assay: Ki
test_readout: Ki (µM)
Report only the number, with the unit µM understood.

Exercise: Given CCC(O)[C@H]1CCCN1c1ncnc2[nH]ccc12 (stereo partly shown) , state its recorded Ki.
Solution: 43

====

Reported Total number of conformations values follow for various compounds
- target_or_test_system: SARS-CoV-2 NSP3 macrodomain (Mac1), P43 crystal form (Severe acute respiratory syndrome coronavirus 2)
- Format: binding
- settings: ligand conformations modeled in Mac1 crystal structure
Give the figure by itself; no unit, no explanation.

Exercise: Which measured Total number of conformations value corresponds to CC(C)(O)C1C2CCCCC2CN1c1ncnc2[nH]ccc12 (centres unmarked) [AVI-4127] ?
Solution: 2

Exercise: I'd like to know its Total number of conformations. The compound in question is O=C(Nc1ccsc1C(=O)O)c1ccc2c(c1)OCO2 [AVI-316]
Solution: 1

Exercise: Quick one: Total number of conformations for CN(CC1(O)CCOCC1)c1ncnc2[nH]ccc12 [AVI-4318] ?
Solution: 1

Exercise: // query Total number of conformations value for entry OCC1C=CCCN1c1ncnc2[nH]ccc12 (centres unmarked) [AVI-5998]
Solution: 1

Exercise: Entry OC1(CNc2ncnc3[nH]ccc23)CCOCC1 [AVI-4314] : reported Total number of conformations = ?
Solution: 1

Exercise: Please report the recorded Total number of conformations for CC1CCC(O)(CNc2ncnc3[nH]ccc23)CC1 (centres unmarked) [AVI-4312] .
Solution: 1

Exercise: Using the record for Cc1ccc(CC(CO)Nc2ncnc3[nH]ccc23)cc1 (centres unmarked) [AVI-3683] , report its Total number of conformations.
Solution: 2

Exercise: Need Total number of conformations of CCC(CC)(CO)Nc1ncnc2[nH]ccc12 [AVI-3695] , thanks.
Solution: 2

Exercise: Tell me the measured Total number of conformations of O[C@H]1COC[C@@H]1Nc1ncnc2[nH]ccc12 [AVI-1444] , please.
Solution: 1

Exercise: Dear colleague, I am looking for the recorded Total number of conformations of the following compound: OCC(Nc1ncnc2[nH]ccc12)C1CCc2ccccc21 (centres unmarked) [AVI-3693]
Solution: 2

Proceed to the following item.
Exercise: Record request: Total number of conformations value, item OCC1COCCN1c1ncnc2[nH]ccc12 (centres unmarked) [AVI-3717]
Solution: 2
